Biological target: human recombinant OX2 (hOX2) receptors expressed in CHO cells (Homo sapiens, UniProt O43614)
Test: IP-1 accumulation assay (IP-One HTRF) in hOX2-CHO cells
Settings: 60 min incubation at 37° C., mean of at least two independent experiments, read-out: EC50_OX2R Category
pEC50: −log10 of the molar value.
Readout label: pEC50

Below are worked cases with known answers.
O=C1COCC2(CCCN3C(=O)OCCOc4cccc(c4)[C@H]4CC[C@H](CC4)OCC32)N1 (mixture of isomers)
> 7.00
Cc1cccc2c1[C@H]1CC[C@H](CC1)OC[C@H]1N(CCC[C@]13COCC(=O)N3)C(=O)CO2 (single isomer, unassigned) [Example 47b]
5.00 to 6.00
O=C1COC[C@@]2(CCCN3C(=O)COc4ccc(F)cc4[C@H]4CC[C@H](CC4)OC[C@H]32)N1 (single isomer, unassigned) [Example 41a]
> 7.00
C[C@@H]1CC(=O)N2CC[C@]3(COCC(=O)N3)[C@H]2CO[C@H]2CC[C@H](CC2)c2ccccc2O1 (single isomer, unassigned)
< 5.00
Cc1cccc2c1[C@H]1CC[C@H](CC1)OC[C@@H]1N(CCC[C@@]13COCC(=O)N3)C(=O)CO2 (single isomer, unassigned) [Example 47a]
> 7.00

Please examine the following record next.
Fill in the blank: the reported pEC50 of CC1CC(=O)N2CCC3(COCC(=O)N3)C2CO[C@H]2CC[C@H](CC2)c2ccccc2O1 (relative stereo) is ____.
6.00 to 7.00

---

Target: human recombinant OX2 (hOX2) receptors expressed in CHO cells (Homo sapiens, UniProt O43614)
Sequence (O43614 1-444): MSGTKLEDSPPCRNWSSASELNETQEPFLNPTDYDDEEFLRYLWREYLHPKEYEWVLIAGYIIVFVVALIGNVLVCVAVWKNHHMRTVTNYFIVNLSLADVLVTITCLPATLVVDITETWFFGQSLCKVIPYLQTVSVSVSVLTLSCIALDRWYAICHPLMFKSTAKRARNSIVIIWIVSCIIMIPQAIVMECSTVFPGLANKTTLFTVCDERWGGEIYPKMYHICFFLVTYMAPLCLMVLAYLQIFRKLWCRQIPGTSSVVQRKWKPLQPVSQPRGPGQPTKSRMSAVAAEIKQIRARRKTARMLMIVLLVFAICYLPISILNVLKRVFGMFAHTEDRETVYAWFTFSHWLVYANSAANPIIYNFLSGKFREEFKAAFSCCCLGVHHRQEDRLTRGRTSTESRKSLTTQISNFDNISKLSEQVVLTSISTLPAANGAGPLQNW
Assay: IP-1 accumulation assay (IP-One HTRF) in hOX2-CHO cells
Conditions: 60 min incubation at 37° C., mean of at least two independent experiments, read-out: EC50_OX2R Category
pEC50: −log10 of the molar value.
pEC50 values by entry

C[C@@H]1C[C@]2(COCC(=O)N2)[C@H]2CO[C@H]3CC[C@H](CC3)c3cccnc3OCC(=O)N12 (single isomer, unassigned) [Example 23b]
5.00 to 6.00
Cc1cccc2c1[C@H]1CC[C@H](CC1)OCC1N(CCCC13COCC(=O)N3)C(=O)CO2 (stereo partly shown)
> 7.00

Fill in the blank: the reported pEC50 of O=C1CS[C@]2(CCCN3C(=O)COc4ccccc4[C@H]4CC[C@H](CC4)OC[C@H]32)N1 (single isomer, unassigned) [Example 68b] is ____.
< 5.00

Repeat for the following molecule: C[C@@H]1CC2(COCC(=O)N2)C2Cc3cccc(c3F)-c3ccccc3CCCCC(=O)N21 (mixture of isomers)
< 5.00

Repeat for the following molecule: O=C1CCC[C@@]2(CCCN3C(=O)COc4ccccc4[C@H]4CC[C@H](CC4)OC[C@H]32)N1 (single isomer, unassigned) [Example 58a]
> 7.00

Repeat for the following molecule: C[C@@H]1CC2(COCC(=O)N2)C2Cc3cccc(c3F)-c3ccccc3OCCCN(C)C(=O)N21 (mixture of isomers)
< 5.00

Repeat for the following molecule: C[C@@H]1C[C@]2(COCC(=O)N2)[C@H]2CO[C@H]3CC[C@H](CC3)c3ccc(F)cc3OCC(=O)N12 [Example 19b]
< 5.00

Repeat for the following molecule: CC1Oc2ccccc2[C@H]2CC[C@H](CC2)OC[C@@H]2N(CCC[C@@]23COCC(=O)N3)C1=O (single isomer, unassigned) [Example 35a]
> 7.00

---

Biological target: human recombinant OX2 (hOX2) receptors expressed in CHO cells (Homo sapiens, UniProt O43614)
Experiment: IP-1 accumulation assay (IP-One HTRF) in hOX2-CHO cells
Conditions: 60 min incubation at 37° C., mean of at least two independent experiments, read-out: EC50_OX2R Category
Readout label: EC50

Below are worked cases with known answers.
CC1COc2ccccc2[C@H]2CC[C@H](CC2)OC[C@@H]2N(CC[C@@]23COCC(=O)N3)C1=O (relative stereo)
100 to 1000 nM
O=C1NC2(CCCN3C(=O)COc4ccccc4[C@H]4CC[C@H](CC4)OCC32)CCO1 (mixture of isomers)
< 100 nM
C[C@@H]1C[C@]2(COCC(=O)N2)[C@H]2CO[C@H]3CC[C@H](CC3)c3c(F)cccc3OCC(=O)N12 (single isomer, unassigned) [Example 17b]
1000 to 10000 nM
C[C@@H]1C[C@]2(COCC(=O)N2)[C@H]2CO[C@H]3CC[C@H](CC3)c3cc(F)cc(F)c3OCC(=O)N12 (single isomer, unassigned) [Example 16b]
> 10000 nM
O=C1COC[C@@]2(CCCN3C(=O)COc4ccc(F)c(F)c4[C@H]4CC[C@H](CC4)OC[C@H]32)N1 (single isomer, unassigned) [Example 43a]
< 100 nM

Please examine the following record next.
Fill in the blank: the reported EC50 of Cc1ccnc2c1[C@H]1CC[C@H](CC1)OCC1N(CCCC13COCC(=O)N3)C(=O)CO2 (stereo partly drawn) is ____.
< 100 nM

---

EC50 values by entry
Molecular target: human recombinant OX2 (hOX2) receptors expressed in CHO cells (Homo sapiens, UniProt O43614)
Experiment: IP-1 accumulation assay (IP-One HTRF) in hOX2-CHO cells
Conditions: 60 min incubation at 37° C., mean of at least two independent experiments, read-out: EC50_OX2R Category

Below are worked cases with known answers.
O=C1COC[C@@]2(CCCN3C(=O)COc4cccc(F)c4[C@H]4CC[C@H](CC4)OC[C@H]32)N1 (single isomer, unassigned) [Example 40a]
< 100 nM
O=C1COCC2(CCCN3C(=O)C4(CC4)COc4cccc(F)c4[C@H]4CC[C@H](CC4)OCC32)N1 (mixture of isomers) [Example 72]
< 100 nM

Please examine the following record next.
Fill in the blank: the reported EC50 of C[C@@H]1C[C@]2(COCC(=O)N2)[C@H]2CO[C@H]3CC[C@H](CC3)c3cccc(F)c3OCC(=O)N12 (single isomer, unassigned) [Example 15b] is ____.
1000 to 10000 nM

---

pEC50 values by entry
Target: human recombinant OX2 (hOX2) receptors expressed in CHO cells (Homo sapiens, UniProt O43614)
Test: IP-1 accumulation assay (IP-One HTRF) in hOX2-CHO cells
Details: 60 min incubation at 37° C., mean of at least two independent experiments, read-out: EC50_OX2R Category
pEC50: −log10 of the molar value.

Below are worked cases with known answers.
O=C1COC[C@]2(CCCN3C(=O)OCCOc4cccc(c4)[C@H]4CC[C@H](CC4)OC[C@@H]32)N1 (single isomer, unassigned) [Example 53b]
< 5.00
O=C1CS[C@@]2(CCCN3C(=O)COc4ccccc4[C@H]4CC[C@H](CC4)OC[C@H]32)N1 (single isomer, unassigned) [Example 68a]
6.00 to 7.00
O=C1COCC2(CCN3C(=O)CCOc4cccc(F)c4[C@H]4CC[C@H](CC4)OCC32)N1 (mixture of isomers)
> 7.00
C[C@@H]1CC2(COCC(=O)N2)C2CO[C@H]3CC[C@H](CC3)c3ccccc3OCCC(=O)N21 (relative stereo)
> 7.00
O=C1COC[C@@]2(CCCN3C(=O)CCOc4ccc(F)cc4[C@H]4CC[C@H](CC4)OC[C@H]32)N1 (single isomer, unassigned) [Example 49a]
> 7.00
C[C@@H]1C[C@@]2(COCC(=O)N2)[C@@H]2CO[C@H]3CC[C@H](CC3)c3ccccc3OCCC(=O)N12 (single isomer, unassigned) [Example 13a]
> 7.00

Fill in the blank: the reported pEC50 of O=C1COC[C@@]2(CCCN3C(=O)CCOc4c(F)cccc4[C@H]4CC[C@H](CC4)OC[C@H]32)N1 (single isomer, unassigned) [Example 48a] is ____.
> 7.00

Repeat for the following molecule: Cc1ccnc2c1[C@H]1CC[C@H](CC1)OC[C@H]1N(CCC[C@]13COCC(=O)N3)C(=O)CO2 [Example 77b]
< 5.00

Repeat for the following molecule: O=C1COCC2(CCCN3C(=O)COc4ccccc4[C@H]4CC[C@H](CC4)OCC32)N1 (stereo partly shown)
> 7.00

Repeat for the following molecule: C[C@@H]1CC2(COCC(=O)N2)C2Cc3cccc(c3F)-c3ccccc3OCCCC(=O)N21 (mixture of isomers)
6.00 to 7.00

Repeat for the following molecule: CN1CCOc2ccccc2-c2cccc(c2F)CC2N(CCCC23COCC(=O)N3)C1=O (racemic)
5.00 to 6.00

Repeat for the following molecule: C[C@@H]1C[C@@]2(COCC(=O)N2)[C@@H]2CO[C@H]3CC[C@H](CC3)c3cccc(Cl)c3OCC(=O)N12 (single isomer, unassigned) [Example 20a]
5.00 to 6.00

Repeat for the following molecule: C[C@@H]1CC2(COCC(=O)N2)C2Cc3cccc(c3F)-c3ccccc3CCCC(=O)N21 (mixture of isomers)
5.00 to 6.00
